FYI, the data here is from patent US9573913B2.

Target: human cathepsin F (Homo sapiens, UniProt Q9UBX1)
Sequence (Q9UBX1 271-484): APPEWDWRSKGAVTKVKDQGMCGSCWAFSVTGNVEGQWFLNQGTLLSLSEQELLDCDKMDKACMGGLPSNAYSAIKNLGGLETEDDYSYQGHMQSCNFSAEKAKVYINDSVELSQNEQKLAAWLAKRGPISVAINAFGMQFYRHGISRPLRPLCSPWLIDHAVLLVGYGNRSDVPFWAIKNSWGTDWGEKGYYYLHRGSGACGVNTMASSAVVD
Experiment: Cathepsin F assay (hCat F)
Format: biochemical
Conditions: Z-Phe-Arg-AMC substrate, pH 5.5, 15 min preincubation; read-out: hCat F (IP (nM))
Kindly supply the reported log10(IC50) values for the records listed here.
Plainly stated, the numbers are log10 of IC50 given in nM.

Challenge: Form field: log10(IC50) recorded for "CN=S1(=O)CCN(c2ccc(-c3sc(-c4cncc(F)c4)nc3[C@@H]3CCCC[C@H]3C(=O)NC3(C#N)CC3)cc2)CC1" with human cathepsin F (Homo sapiens, UniProt Q9UBX1) (enter value)
Response given: 3.33

Challenge: Under human cathepsin F (Homo sapiens, UniProt Q9UBX1): log10(IC50) value of "N#CC1(NC(=O)[C@@H]2CCCC[C@H]2c2nc(C3(c4ccccc4)CC3)sc2-c2ccc(N3CCS(=O)(=O)CC3)cc2)CC1" ?
Response given: 3.00

Challenge: // fetch human cathepsin F (Homo sapiens, UniProt Q9UBX1) log10(IC50) for "Cc1ccc(-c2nc([C@@H]3CCCC[C@H]3C(=O)NC3(C#N)CC3)c(-c3ccc(N4CCS(=O)(=O)CC4)cc3)s2)nn1"
Response given: 3.05

Challenge: Fill in the recorded log10(IC50) for this compound, with human cathepsin F (Homo sapiens, UniProt Q9UBX1) as test system: "N#CC1(NC(=O)[C@@H]2CCCC[C@H]2c2nc(-c3cccnc3)sc2-c2ccc(N3CCS(=O)(=O)CC3)cc2)CC1"
Response given: 3.42

Challenge: # value lookup — system human cathepsin F (Homo sapiens, UniProt Q9UBX1), readout log10(IC50), item "N#Cc1ccccc1-c1nc([C@@H]2CCCC[C@H]2C(=O)NC2(C#N)CC2)c(-c2ccc(N3CCS(=O)(=O)CC3)cc2)s1"
Response given: 3.76

Challenge: Which log10(IC50) is reported with human cathepsin F (Homo sapiens, UniProt Q9UBX1) for this entry: "CS(=O)(=O)C1CN(c2ccc(-c3sc(-c4cccnc4)nc3[C@@H]3CCCC[C@H]3C(=O)NC3(C#N)CC3)cc2)C1" ?
Response given: 3.08

Challenge: Requested read-out log10(IC50), target or system human cathepsin F (Homo sapiens, UniProt Q9UBX1), entry CCC(C#N)NC(=O)[C@@H]1CCCC[C@H]1c1nc(-c2ccc(F)cn2)sc1-c1ccc(N2CCS(=O)(=O)CC2)cc1 (single isomer, unassigned) [Example 192]
Response given: 2.01

Challenge: // map "COc1ccc(-c2nc([C@@H]3CCCC[C@H]3C(=O)NC3(C#N)CC3)c(-c3ccc(N4CCS(=O)(=O)CC4)cc3)s2)cn1" to recorded log10(IC50) (system: human cathepsin F (Homo sapiens, UniProt Q9UBX1))
Response given: 3.52

Challenge: # get_value(readout= log10(IC50), system= human cathepsin F (Homo sapiens, UniProt Q9UBX1)) for "COc1ccc(-c2nc([C@@H]3CCCC[C@H]3C(=O)NC3(C#N)CC3)c(-c3ccc(N4CCS(=O)(=O)CC4)cc3)s2)cc1"
Response given: 3.05

Challenge: Record lookup: for human cathepsin F (Homo sapiens, UniProt Q9UBX1), what log10(IC50) belongs to "CC(C)(C)c1nc([C@@H]2CCC(F)(F)C[C@H]2C(=O)NC2(C#N)CC2)c(-c2ccc(N3CCS(=O)(=O)CC3)cc2)o1" ?
Response given: 2.55

Challenge: Hello, I am looking for reported log10(IC50) with human cathepsin F (Homo sapiens, UniProt Q9UBX1) for "N#CC1(NC(=O)[C@@H]2CCCC[C@H]2c2nc(Oc3ccccc3)sc2-c2ccc(N3CCS(=O)(=O)CC3)cc2)CC1" . Could you help?
Response given: 2.97

Challenge: Reported log10(IC50) for human cathepsin F (Homo sapiens, UniProt Q9UBX1), given "COc1cccc(-c2nc([C@@H]3CCCC[C@H]3C(=O)NC3(C#N)CC3)c(-c3ccc(N4CCS(=O)(=O)CC4)cc3)s2)c1" ?
Response given: 2.91

Challenge: Notebook: pull reported log10(IC50) for human cathepsin F (Homo sapiens, UniProt Q9UBX1), entry "N#CC1(NC(=O)[C@@H]2CCCC[C@H]2c2nc(-c3ccc(F)cn3)sc2-c2ccc(N3CCS(=N)(=O)CC3)cc2)CC1"
Response given: 3.22

Challenge: Form field - read-out: log10(IC50); system: human cathepsin F (Homo sapiens, UniProt Q9UBX1); submitted item: "N#CC1(NC(=O)[C@@H]2C[C@@H](F)CC[C@H]2c2nc(-c3ccc(F)cc3)sc2-c2ccc(N3CCS(=N)(=O)CC3)cc2)CC1"
Response given: 3.52

Challenge: Which log10(IC50) is reported with human cathepsin F (Homo sapiens, UniProt Q9UBX1) for this entry: "N#CC1(NC(=O)[C@@H]2CCC(F)(F)C[C@H]2c2nc(-c3ccc(F)cc3)sc2-c2ccc(N3CCS(=O)(=O)CC3)cc2)CC1" ?
Response given: 3.52

Challenge: Fill in the recorded log10(IC50) for this compound, with human cathepsin F (Homo sapiens, UniProt Q9UBX1) as test system: "N#Cc1cccc(-c2nc([C@@H]3CCCC[C@H]3C(=O)NC3(C#N)CC3)c(-c3ccc(N4CCS(=O)(=O)CC4)cc3)s2)c1"
Response given: 3.15

Challenge: Form field: log10(IC50) recorded for "CC(C)(C)c1nc([C@@H]2CCCC[C@H]2C(=O)NC2(C#N)CC2)c(-c2ccc(N3CCS(=O)(=O)CC3)cc2)o1" with human cathepsin F (Homo sapiens, UniProt Q9UBX1) (enter value)
Response given: 3.71

Challenge: Item "N#CC1(NC(=O)[C@@H]2CCCC[C@H]2c2nc(-c3ccc(F)cc3)sc2-c2ccc(N3CCS(=O)(=O)CC3)cc2)CC1" with human cathepsin F (Homo sapiens, UniProt Q9UBX1) - log10(IC50)?
Response given: 3.00

====

Target: human cathepsin F (Homo sapiens, UniProt Q9UBX1)
Test: Cathepsin F assay (hCat F)
Assay type: biochemical
Settings: Z-Phe-Arg-AMC substrate, pH 5.5, 15 min preincubation; read-out: hCat F (IP (nM))
Provide the recorded IC50 for the entries that follow.
Answer in nM, number only, no unit symbol.

Challenge: # get_value(readout='IC50', item= "N#CC1(NC(=O)[C@@H]2CCCC[C@H]2c2nc(-c3ncc(F)cc3F)sc2-c2ccc(N3CCS(=O)(=O)CC3)cc2)CC1" )
Response given: 1000

Challenge: Return reported IC50; argument: "N#CC1(NC(=O)[C@@H]2CCCC[C@H]2c2nc(-c3ccnc(C(F)(F)F)c3)sc2-c2ccc(N3CCS(=O)(=O)CC3)cc2)CC1"
Response given: 1920

Challenge: May I ask what IC50 has been recorded for "N#Cc1cc(Cl)ccc1-c1nc([C@@H]2CCCC[C@H]2C(=O)NC2(C#N)CC2)c(-c2ccc(N3CCS(=O)(=O)CC3)cc2)s1" ?
Response given: 7780

Challenge: Recorded IC50 for "N#CC1(NC(=O)[C@@H]2C[C@@H](F)CC[C@H]2c2nc(-c3cncc(Cl)c3)sc2-c2ccc(N3CCS(=O)(=O)CC3)cc2)CC1" , please?
Response given: 2310

====

Molecular target: human cathepsin F (Homo sapiens)
Assay: Cathepsin F assay (hCat F)
Format: biochemical
Details: Z-Phe-Arg-AMC substrate, pH 5.5, 15 min preincubation; read-out: hCat F (IP (nM))
// classify: if (IC50 < 3000 nM) label 1 else label 0

Challenge: Please check: IC50 for "N#CC1(NC(=O)[C@@H]2CCCC[C@H]2c2nc(-c3ccnc(C(F)(F)F)n3)sc2-c2ccc(N3CCS(=O)(=O)CC3)cc2)CC1" , strictly under 3000 nM or not?
Response given: label 0

Challenge: Would you kindly verify if IC50 of "N#CC1(NC(=O)[C@@H]2CCCC[C@H]2c2nc(-c3ccc(F)cn3)sc2-c2ccc(N3CCS(=O)(=O)CC3)cc2)CC1" is strictly less than 3000 nM?
Response given: label 1

Challenge: IC50 strictly < 3000 nM for this compound? N#CC1(NC(=O)[C@@H]2CCCC[C@H]2c2nc(C(O)C(F)(F)F)sc2-c2ccc(N3CCS(=O)(=O)CC3)cc2)CC1 (mixture of isomers)
Response given: label 0

Challenge: Check if IC50 falls below 3000 nM for "N#CCNC(=O)[C@@H]1C[C@@H](F)CC[C@H]1c1nc(-c2ccc(F)cn2)sc1-c1ccc(N2CCS(=O)(=O)CC2)cc1" .
Response given: label 0

Challenge: Is IC50 strictly under 3000 nM for the entry "C[C@@H](C#N)NC(=O)[C@@H]1C[C@@H](F)CC[C@H]1c1nc(C(F)F)sc1-c1ccc(N2CCS(=O)(=O)CC2)cc1" ?
Response given: label 1

Challenge: Could you please tell me whether IC50 recorded for "N#CC1(NC(=O)[C@@H]2CCCC[C@H]2c2nc(-c3ccc(F)c(F)c3)sc2-c2ccc(N3CCS(=O)(=O)CC3)cc2)CC1" is less than 3000 nM?
Response given: label 1
